Numbers sourced from the supplement of paper PMC5998384.

- Test system: HeLa Kyoto
- assaySummary: thermal stability score vs G1/S (z-score of summed log2 fold changes over temperatures); higher = more thermally stable than in G1/S
- assayContext: cell cycle stage: early G1 (4.5 h after nocodazole release)
Entry flag: MET if thermal stability score reaches -0.01; NOT MET if it does not.

- seq: "MDTPPLSDSESESDESLVTDRELQDAFSRGLLKPGLNVVLEGPKKAVNDVNGLKQCLAEFKRDLEWVERLDVTLGPVPEIGGSEAPAPQNKDQKAVDPEDDFQREMSFYRQAQAAVLAVLPRLHQLKVPTKRPTDYFAEMAKSDLQMQKIRQKLQTKQAAMERSEKAKQLRALRKYGKKVQTEVLQKRQQEKAHMMNAIKKYQKGFSDKLDFLEGDQKPLAQRKKAGAKGQQMRKGPSAKRRYKNQKFGFGGKKKGSKWNTRESYDDVSSFRAKTAHGRGLKRPGKKGSNKRPGKRTREKMKNRTH [EBNA1BP2]"
  class: "MET"
- seq: "MPRKRKCDLRAVRVGLLLGGGGVYGSRFRFTFPGCRALSPWRVRVQRRRCEMSTMFADTLLIVFISVCTALLAEGITWVLVYRTDKYKRLKAEVEKQSKKLEKKKETITESAGRQQKKKIERQEEKLKNNNRDLSMVRMKSMFAIGFCFTALMGMFNSIFDGRVVAKLPFTPLSYIQGLSHRNLLGDDTTDCSFIFLYILCTMSIRQNIQKILGLAPSRAATKQAGGFLGPPPPSGKFS [TMCO1]"
  class: "NOT MET"
- seq: "MSSSPVKRQRMESALDQLKQFTTVVADTGDFHAIDEYKPQDATTNPSLILAAAQMPAYQELVEEAIAYGRKLGGSQEDQIKNAIDKLFVLFGAEILKKIPGRVSTEVDARLSFDKDAMVARARRLIELYKEAGISKDRILIKLSSTWEGIQAGKELEEQHGIHCNMTLLFSFAQAVACAEAGVTLISPFVGRILDWHVANTDKKSYEPLEDPGVKSVTKIYNYYKKFSYKTIVMGASFRNTGEIKALAGCDFLTISPKLLGELLQDNAKLVPVLSAKAAQASDLEKIHLDEKSFRWLHNEDQMAVEKLSDGIRKFAADAVKLERMLTERMFNAENGK [TALDO1]"
  class: "NOT MET"
- seq: "MASPGCLLCVLGLLLCGAASLELSRPHGDTAKKPIIGILMQKCRNKVMKNYGRYYIAASYVKYLESAGARVVPVRLDLTEKDYEILFKSINGILFPGGSVDLRRSDYAKVAKIFYNLSIQSFDDGDYFPVWGTCLGFEELSLLISGECLLTATDTVDVAMPLNFTGGQLHSRMFQNFPTELLLSLAVEPLTANFHKWSLSVKNFTMNEKLKKFFNVLTTNTDGKIEFISTMEGYKYPVYGVQWHPEKAPYEWKNLDGISHAPNAVKTAFYLAEFFVNEARKNNHHFKSESEEEKALIYQFSPIYTGNISSFQQCYIFD [GGH]"
  class: "MET"
- seq: "MSYTPGVGGDPAQLAQRISSNIQKITQCSVEIQRTLNQLGTPQDSPELRQQLQQKQQYTNQLAKETDKYIKEFGSLPTTPSEQRQRKIQKDRLVAEFTTSLTNFQKVQRQAAEREKEFVARVRASSRVSGSFPEDSSKERNLVSWESQTQPQVQVQDEEITEDDLRLIHERESSIRQLEADIMDINEIFKDLGMMIHEQGDVIDSIEANVENAEVHVQQANQQLSRAADYQRKSRKTLCIIILILVIGVAIISLIIWGLNH [STX7]"
  class: "NOT MET"

###

- System: HeLa Kyoto
- assaySummary: solubility in G1/S (NP-40 vs SDS abundance) (log2 ratio); higher = more soluble
- assayContext: cell cycle stage: G1/S
Item-by-item account of solubility in G1/S (log2)
propertyLabel: solubility in G1/S (log2)

- seq: "MESALPAAGFLYWVGAGTVAYLALRISYSLFTALRVWGVGNEAGVGPGLGEWAVVTGSTDGIGKSYAEELAKHGMKVVLISRSKDKLDQVSSEIKEKFKVETRTIAVDFASEDIYDKIKTGLAGLEIGILVNNVGMSYEYPEYFLDVPDLDNVIKKMININILSVCKMTQLVLPGMVERSKGAILNISSGSGMLPVPLLTIYSATKTFVDFFSQCLHEEYRSKGVFVQSVLPYFVATKLAKIRKPTLDKPSPETFVKSAIKTVGLQSRTNGYLIHALMGSIISNLPSWIYLKIVMNMNKSTRAHYLKKTKKN [HSD17B12]"
  assayResult: 0.079
- seq: "MWSGRKLGSSGGWFLRVLGPGGCNTKAARPLISSAVYVKNQLSGTLQIKPGVFNEYRTIWFKSYRTIFSCLNRIKSFRYPWARLYSTSQTTVDSGEVKTFLALAHKWWDEQGVYAPLHSMNDLRVPFIRDNLLKTIPNHQPGKPLLGMKILDVGCGGGLLTEPLGRLGASVIGIDPVDENIKTAQCHKSFDPVLDKRIEYRVCSLEEIVEETAETFDAVVASEVVEHVIDLETFLQCCCQVLKPGGSLFITTINKTQLSYALGIVFSEQIASIVPKGTHTWEKFVSPETLESILESNGLSVQTVVGMLYNPFSGYWHWSENTSLNYAAYAVKSRVQEHPASAEFVLKGETEELQANACTNPAVHEKLKK [COQ3]"
  assayResult: 0.345
- seq: "MRPVRLMKVFVTRRIPAEGRVALARAADCEVEQWDSDEPIPAKELERGVAGAHGLLCLLSDHVDKRILDAAGANLKVISTMSVGIDHLALDEIKKRGIRVGYTPDVLTDTTAELAVSLLLTTCRRLPEAIEEVKNGGWTSWKPLWLCGYGLTQSTVGIIGLGRIGQAIARRLKPFGVQRFLYTGRQPRPEEAAEFQAEFVSTPELAAQSDFIVVACSLTPATEGLCNKDFFQKMKETAVFINISRGDVVNQDDLYQALASGKIAAAGLDVTSPEPLPTNHPLLTLKNCVILPHIGSATHRTRNTMSLLAANNLLAGLRGEPMPSELKL [GRHPR]"
  assayResult: 0.0329
- seq: "MAEAVLRVARRQLSQRGGSGAPILLRQMFEPVSCTFTYLLGDRESREAVLIDPVLETAPRDAQLIKELGLRLLYAVNTHCHADHITGSGLLRSLLPGCQSVISRLSGAQADLHIEDGDSIRFGRFALETRASPGHTPGCVTFVLNDHSMAFTGDALLIRGCGRTDFQQGCAKTLYHSVHEKIFTLPGDCLIYPAHDYHGFTVSTVEEERTLNPRLTLSCEEFVKIMGNLNLPKPQQIDFAVPANMRCGVQTPTA [ETHE1]"
  assayResult: 0.214
- seq: "MVGSLNCIVAVSQNMGIGKNGDLPWPPLRNEFRYFQRMTTTSSVEGKQNLVIMGKKTWFSIPEKNRPLKGRINLVLSRELKEPPQGAHFLSRSLDDALKLTEQPELANKVDMVWIVGGSSVYKEAMNHPGHLKLFVTRIMQDFESDTFFPEIDLEKYKLLPEYPGVLSDVQEEKGIKYKFEVYEKND [DHFR]"
  assayResult: 0.294

###

- Test system: HeLa Kyoto
- assaySummary: solubility in G1/S (NP-40 vs SDS abundance) (log2 ratio); higher = more soluble
- assayContext: cell cycle stage: G1/S
// reported solubility in G1/S (log2) per item

- seq: "MEKIEEQFANLHIVKCSLGTKEPTYLLGIDTSKTVQAGKENLVAVLCSNGSIRIYDKERLNVLREFSGYPGLLNGVRFANSCDSVYSACTDGTVKCWDARVAREKPVQLFKGYPSNIFISFDINCNDHIICAGTEKVDDDALLVFWDARMNSQNLSTTKDSLGAYSETHSDDVTQVRFHPSNPNMVVSGSSDGLVNVFDINIDNEEDALVTTCNSISSVSCIGWSGKGYKQIYCMTHDEGFYWWDLNHLDTDEPVTRLNIQDVREVVNMKEDALDYLIGGLYHEKTDTLHVIGGTNKGRIHLMNCSMSGLTHVTSLQGGHAATVRSFCWNVQDDSLLTGGEDAQLLLWKPGAIEKTFTKKESMKIASSVHQRVRVHSNDSYKRRKKQ [WDR89]"
  assayedSystem: "HeLa Kyoto"
  solubility in G1/S (log2): -1.26
- seq: "MPLPVALQTRLAKRGILKHLEPEPEEEIIAEDYDDDPVDYEATRLEGLPPSWYKVFDPSCGLPYYWNADTDLVSWLSPHDPNSVVTKSAKKLRSSNADAEEKLDRSHDKSDRGHDKSDRSHEKLDRGHDKSDRGHDKSDRDRERGYDKVDRERERDRERDRDRGYDKADREEGKERRHHRREELAPYPKSKKAVSRKDEELDPMDPSSYSDAPRGTWSTGLPKRNEAKTGADTTAAGPLFQQRPYPSPGAVLRANAEASRTKQQD [PQBP1]"
  assayedSystem: "HeLa Kyoto"
  solubility in G1/S (log2): 0.0148
- seq: "MASQLQNRLRSALALVTGAGSGIGRAVSVRLAGEGATVAACDLDRAAAQETVRLLGGPGSKEGPPRGNHAAFQADVSEARAARCLLEQVQACFSRPPSVVVSCAGITQDEFLLHMSEDDWDKVIAVNLKGTFLVTQAAAQALVSNGCRGSIINISSIVGKVGNVGQTNYAASKAGVIGLTQTAARELGRHGIRCNSVLPGFIATPMTQKVPQKVVDKITEMIPMGHLGDPEDVADVVAFLASEDSGYITGTSVEVTGGLFM [HSD17B8]"
  assayedSystem: "HeLa Kyoto"
  solubility in G1/S (log2): 0.368
- seq: "MHRGVGPAFRVVRKMAASGAEPQVLVQYLVLRKDLSQAPFSWPAGALVAQACHAATAALHTHRDHPHTAAYLQELGRMRKVVLEAPDETTLKELAETLQQKNIDHMLWLEQPENIATCIALRPYPKEEVGQYLKKFRLFK [PTRHD1]"
  assayedSystem: "HeLa Kyoto"
  solubility in G1/S (log2): -0.278
- seq: "MSESLVVCDVAEDLVEKLRKFRFRKETNNAAIIMKIDKDKRLVVLDEELEGISPDELKDELPERQPRFIVYSYKYQHDDGRVSYPLCFIFSSPVGCKPEQQMMYAGSKNKLVQTAELTKVFEIRNTEDLTEEWLREKLGFFH [GMFB]"
  assayedSystem: "HeLa Kyoto"
  solubility in G1/S (log2): 0.3
- seq: "MRALRAGLTLASGAGLGAVVEGWRRRREDARAAPGLLGRLPVLPVAAAAELPPVPGGPRGPGELAKYGLPGLAQLKSRESYVLCYDPRTRGALWVVEQLRPERLRGDGDRRECDFREDDSVHAYHRATNADYRGSGFDRGHLAAAANHRWSQKAMDDTFYLSNVAPQVPHLNQNAWNNLEKYSRSLTRSYQNVYVCTGPLFLPRTEADGKSYVKYQVIGKNHVAVPTHFFKVLILEAAGGQIELRTYVMPNAPVDEAIPLERFLVPIESIERASGLLFVPNILARAGSLKAITAGSK [ENDOG]"
  assayedSystem: "HeLa Kyoto"
  solubility in G1/S (log2): 0.34
